Test: Apparent permeability from apical to basolateral side of human Caco-2 cells
Type: ADME, cell-based
assay_readout: Papp A→B (×10⁻⁶ cm/s)
Value expressed in ×10⁻⁶ cm/s; do not type the unit.

# input For the compound shown here, COc1cc(/C=C/C(=O)/C(Cc2cn(CCCCCCNC(=O)CCNC(=O)CCNC(=O)CO[C@H]3CC[C@@]4(C)C(=CC[C@H]5[C@@H]6CC[C@H]([C@H](C)CCCC(C)C)[C@@]6(C)CC[C@@H]54)C3)nn2)=C(O)/C=C/c2ccc(O)c(OC)c2)ccc1O , give the reported Papp A→B.
# output 7.1

====

Assay: Apparent permeability from basolateral to apical side of human Caco-2 cells
Format: ADME, cell-based
assay_readout: Papp B→A
Answer format: value, then unit.

# input For the molecule shown here, COc1cc(/C=C/C(=O)/C(Cc2cn(CCCCCCNC(=O)CCNC(=O)CCNC(=O)CO[C@H]3CC[C@@]4(C)C(=CC[C@H]5[C@@H]6CC[C@H]([C@H](C)CCCC(C)C)[C@@]6(C)CC[C@@H]54)C3)nn2)=C(O)/C=C/c2ccc(O)c(OC)c2)ccc1O , give the reported Papp B→A.
# output 4.7 ×10⁻⁶ cm/s
